Would you mind telling me the reported log10 of IC50 of each entry?
biological target: PIM2 (Homo sapiens, UniProt Q9P1W9); assay: Pim 2 AlphaScreen assay (high ATP); type: biochemical; details: read-out: Pim2 IC50
Sequence (Q9P1W9 whole entry): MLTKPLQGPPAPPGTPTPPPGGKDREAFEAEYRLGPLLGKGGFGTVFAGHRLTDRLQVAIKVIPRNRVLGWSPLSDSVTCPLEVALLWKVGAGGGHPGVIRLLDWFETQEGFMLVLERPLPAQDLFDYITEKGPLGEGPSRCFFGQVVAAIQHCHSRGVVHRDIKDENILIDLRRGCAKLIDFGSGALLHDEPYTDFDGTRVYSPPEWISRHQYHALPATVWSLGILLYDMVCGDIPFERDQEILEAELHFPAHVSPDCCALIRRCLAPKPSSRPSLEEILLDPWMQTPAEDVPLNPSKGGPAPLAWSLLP
// stored as log10 of IC50 expressed in nM

Worked examples, 5 compounds total:
                                   compound  experimental_value
0  CC(C)[C@@H]1C[C@H](N)C[C@H](c2ccncc2NC(=O)c2ccc(F)c(-c3c(F)cc(S(C)(=O)=O)cc3F)n2)O1                1.85
1  Nc1ncc(-c2ccccc2)nc1C(=O)Nc1cnccc1[C@H]1C[C@@H](N)[C@@]2(O)CCC[C@H]2O1                1.88
2  C[C@]1(O)[C@H](O)C[C@H](c2ccncc2NC(=O)c2ccc(F)c(-c3c(F)cccc3F)n2)O[C@@H]1C1CC1                2.27
3  C[C@@]1(O)[C@H](N)C[C@@H](c2ccncc2NC(=O)c2nc(-c3ccccc3)cnc2N)OC12CC2                3.30
4  C[C@H]1O[C@@H](c2ccncc2NC(=O)c2ccc(F)c(-c3ccccc3)n2)C[C@@H](N)[C@]1(C)O                2.39

Consider now this further compound.
Exercise: Identify log10 of IC50 associated with the compound C[C@]1(O)[C@H](N)CC(c2ccncc2NC(=O)c2ccc(F)c(-c3c(F)cc(S(C)(=O)=O)cc3F)n2)O[C@@H]1C1CC1 (stereo in doubt)
Key: 1.79

---

biological target: PKCα (Homo sapiens); test: PKCα kinase Caliper assay; format: biochemical; details: PKCα Caliper assay; read-out: PKC IC50
recorded.endpoint: pIC50
Give bare numbers, as −log10 of the molar value.

// below: answered molecules
>>> df
                           smiles_structure  experimental_value
0  C[C@]1(O)[C@H](N)C[C@H](c2ccncc2NC(=O)c2nc(-c3ccccc3)cnc2N)O[C@@H]1C1CC1                6.96
1  CC1(C)C[C@@H](N)C[C@H](c2ccncc2NC(=O)c2nc(-c3ccccc3)cnc2N)O1                7.40
2  CC[C@@H]1O[C@H](c2ccncc2NC(=O)c2nc(-c3ccccc3)cnc2N)C[C@H](N)[C@H]1O                7.15
3  Nc1ncc(-c2ccccc2)nc1C(=O)Nc1cnccc1[C@@H]1C[C@H](N)[C@]2(O)CCC[C@@H]2O1                6.19
4  Nc1ncc(-c2ccccc2)nc1C(=O)Nc1cnccc1[C@H]1C[C@@H](N)[C@@]2(O)CCC[C@H]2O1                7.47

Need pIC50 for each of these molecules.
1. CC(C)(C)[C@H]1O[C@@H](c2ccncc2NC(=O)c2nc(-c3ccccc3)cnc2N)C[C@@H](N)[C@@H]1O
2. CC[C@@H]1O[C@H](c2ccncc2NC(=O)c2nc(-c3ccccc3)cnc2N)C[C@H](N)[C@@]1(C)O

Key:
7.66
6.18

Below are some molecules; for each one, tell me its pIC50.
1. CC[C@]1(O)[C@H](C)O[C@H](c2ccncc2NC(=O)c2nc(-c3ccccc3)cnc2N)C[C@@H]1N
2. C[C@@]1(O)[C@@H](N)C[C@@H](c2ccncc2NC(=O)c2nc(-c3ccccc3)cnc2N)OC12CC2
3. Nc1ncc(-c2ccccc2)nc1C(=O)Nc1cnccc1[C@H]1C[C@@H](O)[C@H](O)[C@@H](CO)O1
4. Nc1ncc(-c2ccccc2)nc1C(=O)Nc1cnccc1[C@H]1C[C@@H](N)[C@@]2(O)CCCC[C@H]2O1
5. CC(C)(C)[C@@H]1O[C@H](c2ccncc2NC(=O)c2nc(-c3ccccc3)cnc2N)C[C@@H](N)[C@H]1O
6. CC[C@]1(O)[C@H](N)C[C@H](c2ccncc2NC(=O)c2nc(-c3ccccc3)cnc2N)O[C@@H]1C

Key:
[6.15, 7.68, 6.19, 7.39, 7.26, 7.30]

Exercise: Please look at CC[C@]1(O)[C@H](N)C[C@H](c2ccncc2NC(=O)c2ccc(F)c(-c3c(F)cccc3F)n2)O[C@@H]1C and tell me its recorded pIC50 on PKCα (Homo sapiens).
Key: 5.02
